- Test system: P388 leukemia ip, CD2F1 mice, survival T/C
- Experiment Notes: NCI In Vivo Anticancer Drug Screen. Data for tumor model P388 Leukemia (intraperitoneal) in CD2F1 (CDF1) mice
- Conditions Used: endpoint: median survival time; dose: 50.0 mg/kg/injection; schedule: Q01DX009 (ip); vehicle: saline; higher = longer survival
- Protocol: The antitumor activity of compounds was measured in mice bearing transplantable tumors. Survival or tumor size were measured and the results are expressed as the measurement made in the treated group (T) divided by the measurement made in the vehicle treated control group (C). The tumor model used in this assay is P388 Leukemia (intraperitoneal) in CD2F1 (CDF1) mice
Toxic doses and inconclusive results are not listed.
This section presents molecules with their documented T/C values.

Below, 3 molecules whose answers are already recorded.
# Compound Structure, Reported Result
measured = [
    ("CCCC(=O)Nc1nc2ccc([N+](=O)[O-])cc2s1", "98 % of control"),
    ("CC/C(=N\\NS(=O)(=O)c1ccc(C)cc1)c1ccc(Br)c(Br)c1", "96 % of control"),
    ("CC(C)NNC(=O)c1ccncc1", "103 % of control"),
]

Lookup: Return reported T/C for target or system P388 leukemia ip, CD2F1 mice, survival T/C, item CNP(=O)(N(C)C)N(C)C .
Found: 96 % of control

Lookup: Return reported T/C for target or system P388 leukemia ip, CD2F1 mice, survival T/C, item O=[N+]([O-])[O-].OCCNCCNCC[OH2+].OCCNCCNCC[OH2+].[Co+2] .
Found: 95 % of control

Lookup: Return reported T/C for target or system P388 leukemia ip, CD2F1 mice, survival T/C, item CCOC(=O)C(CCC(OCC)OCC)C(=O)OCC .
Found: 103 % of control

---

- Test system: P388 leukemia ip, CD2F1 mice, survival T/C
- Experiment Notes: NCI In Vivo Anticancer Drug Screen. Data for tumor model P388 Leukemia (intraperitoneal) in CD2F1 (CDF1) mice
- Conditions Used: endpoint: median survival time; dose: 25.0 mg/kg/injection; schedule: Q04DX003 (ip); vehicle: saline
Inconclusive results and toxic doses are left out. The calls were made as follows: active = survival T/C of 150% or more; inactive = T/C below 125% in these data.
Parameter call: string, one of TRUE for active, FALSE for inactive

Some entries whose results are on file:
# Compound, Discrete Label
measured = [
    ("[C-]#[N+]C(C)Cc1ccccc1 (stereo not given)", "FALSE"),
    ("C#CCSc1ncnc2nc[nH]c12", "FALSE"),
    ("C[CH2][Sn]([Cl])([Cl])[CH2]C", "TRUE"),
    ("CCOC(=O)/C(=C/c1ncnc2nc[nH]c12)C(F)(F)C(=O)OCC", "FALSE"),
]

For the next question, use this compound.
Lookup: What was the test verdict on COC(=O)c1[c]([Sn]([CH3])([CH3])[CH3])n[n]([Pb]([CH3])([CH3])[CH3])c1C(=O)OC ?
Found: FALSE

---

- Test system: P388 leukemia ip, CD2F1 mice, survival T/C
- Experiment Notes: NCI In Vivo Anticancer Drug Screen. Data for tumor model P388 Leukemia (intraperitoneal) in CD2F1 (CDF1) mice
- Conditions Used: endpoint: median survival time; dose: 12.5 mg/kg/injection; schedule: Q01DX009 (ip); vehicle: Klucel (hydroxypropylcellulose) (HPC); higher = longer survival
Toxic doses and inconclusive results are not listed.
Measurement Type: T/C

# Molecule, Assay Target, T/C
data = [
    ("Cc1sc(NCc2ccccc2)c(C#N)c1C", "P388 leukemia ip, CD2F1 mice, survival T/C", "97 % of control"),
    ("CCSC(=Nc1nc2ccc(NC(C)=O)cc2s1)SCC", "P388 leukemia ip, CD2F1 mice, survival T/C", "101 % of control"),
    ("C/C=C(\\C)C(=O)OC1CC(OC(=O)/C(C)=C/C)C2(C)C3C(=O)C=C(C)C2C3C1(C)C (stereo not given)", "P388 leukemia ip, CD2F1 mice, survival T/C", "90 % of control"),
    ("NC(CSc1nc2ccccn2c1[N+](=O)[O-])C(=O)O (stereo not given)", "P388 leukemia ip, CD2F1 mice, survival T/C", "98 % of control"),
    ("CC(C)CCC[C@@H](C)[C@H]1CC[C@H]2[C@@H]3CCC(=O)[C@](C)(CCC(=O)O)[C@H]3CC[C@]12C", "P388 leukemia ip, CD2F1 mice, survival T/C", "96 % of control"),
    ("CC1(C)CCCC(C)(C2CCC3(C)C2C(O)CC2C4(C)CCC(O)C(C)(C)C4C(O)CC23C)O1 (stereo not given)", "P388 leukemia ip, CD2F1 mice, survival T/C", "99 % of control"),
    ("Nc1nc(=S)c2ncn(C3CC(O)C(CO)O3)c2[nH]1 (stereo not given)", "P388 leukemia ip, CD2F1 mice, survival T/C", "122 % of control"),
    ("CCN1CCCC(Nc2cc(C)nc(Nc3nc4cc(Cl)c(Cl)cc4[nH]3)n2)C1 (stereo not given)", "P388 leukemia ip, CD2F1 mice, survival T/C", "90 % of control"),
]

Lookup: Return reported T/C for target or system P388 leukemia ip, CD2F1 mice, survival T/C, item C=C1CC(O)C2C(=C)C(=O)OC2C2C(C)C(=O)CC12 (stereo not given) .
Found: 107 % of control

Lookup: Return reported T/C for target or system P388 leukemia ip, CD2F1 mice, survival T/C, item C=C1C(=O)OC2(C)CCC1CC1OC1(C)CCC=C(C)CCC2O (stereo not given) .
Found: 98 % of control
